target: TetR (class B, Tn10); assay: TetR repression strength (sort-seq, GFP reporter) (relative to tetO2 = 1); higher = stronger repression; conditions: E. coli
Whole data set: some 18,000 sequences, median “TetR repression strength (sort-seq, GFP reporter)” near 0.23, cut for the highest 2% near 0.68. The list comes from a sample in which the highest values are over-represented; it also holds close analogues and randomly drawn sequences.
We use 0.2 as the dividing line for TetR repression strength: on or above the line is class 1, below is class 0.

## Input hey, is TetR repression strength for this one >= 0.2? `TCCCTTGTAGTTGAAGAGA`
## Output class 0

## Input hey, is TetR repression strength for this one >= 0.2? `TCCCCTTCAGTAGCGGAGA`
## Output class 1

## Input hey, is TetR repression strength for this one >= 0.2? `TCCCGCTGAGTAATGGAGA`
## Output class 1

## Input hey, is TetR repression strength for this one >= 0.2? `TCCCTTCCAGTTTCAGAGA`
## Output class 1

## Input hey, is TetR repression strength for this one >= 0.2? `TCCCGCAGAGTTAGAGAGA`
## Output class 1

## Input hey, is TetR repression strength for this one >= 0.2? `TCCCTTTCAGTAGCGGAGA`
## Output class 1

## Input hey, is TetR repression strength for this one >= 0.2? `TCCCTACAAGTGGATGAGA`
## Output class 1

## Input hey, is TetR repression strength for this one >= 0.2? `TCCCAGGGAGTGCCGGAGA`
## Output class 0

## Input hey, is TetR repression strength for this one >= 0.2? `TCCCTTCAAGTTTGAGAGA`
## Output class 0

## Input hey, is TetR repression strength for this one >= 0.2? `TCCCAGGTAGTCGGCGAGA`
## Output class 0

## Input hey, is TetR repression strength for this one >= 0.2? `TCCCTTTCAGTCGAGGAGA`
## Output class 1

## Input hey, is TetR repression strength for this one >= 0.2? `TCCCTGTGAGTGCCGGAGA`
## Output class 0

## Input hey, is TetR repression strength for this one >= 0.2? `TCCCTAAGAGTTGGTGAGA`
## Output class 0

## Input hey, is TetR repression strength for this one >= 0.2? `TCCCAGCGAGTATGAGAGA`
## Output class 0

## Input hey, is TetR repression strength for this one >= 0.2? `TCCCTGTCAGTGCCGGAGA`
## Output class 1

## Input hey, is TetR repression strength for this one >= 0.2? `TCCCCAGTAGTTGGTGAGA`
## Output class 0

## Input hey, is TetR repression strength for this one >= 0.2? `TCCCTCATAGTGGGTGAGA`
## Output class 0

## Input hey, is TetR repression strength for this one >= 0.2? `TCCCTATCAGTGTTTGAGA`
## Output class 1

## Input hey, is TetR repression strength for this one >= 0.2? `TCCCAGTTAGTTGAGGAGA`
## Output class 1

## Input hey, is TetR repression strength for this one >= 0.2? `TCCCGGAGAGTGTATGAGA`
## Output class 0

## Input hey, is TetR repression strength for this one >= 0.2? `TCCCTATGAGTGCTTGAGA`
## Output class 1

## Input hey, is TetR repression strength for this one >= 0.2? `TCCCCTGGAGTCGTGGAGA`
## Output class 1

## Input hey, is TetR repression strength for this one >= 0.2? `TCCCTGTTAGTTGTAGAGA`
## Output class 1

## Input hey, is TetR repression strength for this one >= 0.2? `TCCCTTCCAGTATCAGAGA`
## Output class 0

## Input hey, is TetR repression strength for this one >= 0.2? `TCCCTTCAAGTGTCAGAGA`
## Output class 1

## Input hey, is TetR repression strength for this one >= 0.2? `TCCCCGAGAGTGTTGGAGA`
## Output class 0

## Input hey, is TetR repression strength for this one >= 0.2? `TCCCTCGTAGTGAGTGAGA`
## Output class 1

## Input hey, is TetR repression strength for this one >= 0.2? `TCCCAGGCAGTGCCGGAGA`
## Output class 1

## Input hey, is TetR repression strength for this one >= 0.2? `TCCCATGTAGTCCTGGAGA`
## Output class 1

## Input hey, is TetR repression strength for this one >= 0.2? `TCCCTTACAGTAGCGGAGA`
## Output class 0

## Input hey, is TetR repression strength for this one >= 0.2? `TCCCTTTCAGTAGAGGAGA`
## Output class 1

## Input hey, is TetR repression strength for this one >= 0.2? `TCCCCTGGAGTAGGCGAGA`
## Output class 0
